tested on: A375 cells (parental); test: Kinase inhibitor library screening, PrestoBlue cell viability, 1 or 10 μM, 72 h; details: A375 Parental, 10μΜ, 72 h; in %
OBSERVABLE: cell viability, A375 Parental, 10μΜ

* CN(c1ncccc1CNc1nc(Nc2ccc3c(c2)CC(=O)N3)ncc1C(F)(F)F)S(C)(=O)=O | 4.0
* O=c1cc(N2CCOCC2)oc2c(-c3cccc4c3sc3ccccc34)cccc12 | 52.7
* C=CC(=O)Nc1cc2c(Nc3ccc(F)c(Cl)c3)ncnc2cc1OCCCN1CCOCC1 | 24.5
* CCOc1cc2ncc(C#N)c(Nc3ccc(F)c(Cl)c3)c2cc1NC(=O)/C=C/CN(C)C [Pelitinib (EKB-569)] | 79.2
* CC(O)C(=O)O.CC(O)C(=O)O.CN1CCN(c2ccc3nc(-c4c(N)c5c(F)cccc5[nH]c4=O)[nH]c3c2)CC1 | 48.0
* Cc1c(NC(=O)OC[C@@H]2COCCN2)cn2ncnc(Nc3ccc4c(cnn4Cc4cccc(F)c4)c3)c12 | 84.6
* Nc1cccc(-c2cc3c(Oc4cccc(O)c4)ncnc3[nH]2)c1 | 29.8
* N#C/C(=C\c1ccc(O)c(O)c1)C(=O)NCc1ccccc1 | 88.6

---

cell viability, 501Mel GP, 10μΜ by entry:
system: 501Mel-GP cells (Dabrafenib-resistant); test: Kinase inhibitor library screening, PrestoBlue cell viability, 1 or 10 μM, 72 h; conditions: 501Mel GP; 10μΜ; 72 h; in %
OBSERVABLE: cell viability, 501Mel GP, 10μΜ

* Cc1c(NC(=O)OC[C@@H]2COCCN2)cn2ncnc(Nc3ccc4c(cnn4Cc4cccc(F)c4)c3)c12 | 91.5
* O=C(NOCC(O)CO)c1cc(Br)c(F)c(F)c1Nc1ccc(I)cc1F (stereo not shown) | 79.2
* COc1cc2ncnc(Nc3ccc(F)c(Cl)c3)c2cc1NC(=O)/C=C/CN1CCCCC1 | -0.4
* CN(c1ncccc1CNc1nc(Nc2ccc3c(c2)CC(=O)N3)ncc1C(F)(F)F)S(C)(=O)=O | 0.9

---

cell viability, A375 Parental, 10μΜ by entry:
system: A375 cells (parental); experiment: Kinase inhibitor library screening, PrestoBlue cell viability, 1 or 10 μM, 72 h; settings: A375 Parental, 10μΜ, 72 h; in %
OBSERVABLE: cell viability, A375 Parental, 10μΜ

• COc1cc2ncnc(Nc3cccc(Br)c3)c2cc1OC.Cl [PD153035 HCl] = 108.3
• Cc1cnc(Nc2ccc(OCCN3CCCC3)cc2)nc1Nc1cccc(S(=O)(=O)NC(C)(C)C)c1 [TG101348 (SAR302503)] = 12.9
• COc1cc2ncnc(Nc3ccc(O)c(Br)c3)c2cc1OC = 86.7
• CNC(=O)c1ccccc1Nc1nc(Nc2ccc(N3CCOCC3)cc2OC)ncc1Cl = 12.7
• CN1CCN(c2cccc(Nc3nc4c(-c5ccc(S(C)(=O)=O)cc5)cccn4n3)c2)CC1 = 76.5
• Nc1ncnc2c1c(-c1cccc(OCc3ccccc3)c1)cn2C1CC(CN2CCCC2)C1 (centres unmarked) = 25.2
• C#Cc1cccc(Nc2ncnc3cc(OCCOC)c(OCCO)cc23)c1 [Desmethyl Erlotinib (CP-473420)] = 78.2
• Cc1cnc(Nc2ccc(N3CCN(C)CC3)cc2)nc1Nc1cccc(S(=O)(=O)NC(C)(C)C)c1 = 11.9

---

tested on: A375-XP cells (Vemurafenib-resistant); assay: Dose-response curves and IC50, PrestoBlue cell viability, 72 h; format: cell-based, human; conditions: Homo sapiens, n.e. = did not suppress growth below 50% in the tested concentration range, read-out: Half-maximal inhibitory concentration value (IC50), Mean
pIC50: −log10 of the molar value.
OBSERVABLE: pIC50

- O=C(NC1CCNCC1)c1[nH]ncc1NC(=O)c1c(Cl)cccc1Cl [AT7519, reference compound]: 6.20
- CNC(=O)c1cc(Oc2ccc(NC(=O)Nc3ccc(Cl)c(C(F)(F)F)c3)c(F)c2)ccn1 [Regorafenib]: 5.77
- Cc1ccc(C(=O)Nc2ccc(CN3CCN(C)CC3)c(C(F)(F)F)c2)cc1C#Cc1cnc2cccnn12 [Ponatinib]: 6.75

---

system: IGR37-GP cells (Dabrafenib-resistant); assay: Kinase inhibitor library screening, PrestoBlue cell viability, 1 or 10 μM, 72 h; details: Homo sapiens, IGR-37, 72 h, read-out: cell viability, IGR37 GP, 1μΜ
Where a name gives a salt, the structure may show the parent alone.
viability at 1 µM by entry:
OBSERVABLE: viability at 1 µM (%)

* Oc1c2ccccc2c2c3c(cccc13)N=N2 | 92.5
* C#Cc1cccc(Nc2ncnc3cc(OCCOC)c(OCCOC)cc23)c1 [Erlotinib HCl] | 93.1
* CN(C)Cc1cccc(N/C(=C2\C(=O)Nc3cc(C(N)=O)ccc32)c2ccccc2)c1 | 91
* Oc1cccc(-c2nc(N3CCOCC3)c3oc4ncccc4c3n2)c1 | 87.6
* C[C@@H]1COC(Nc2ccc3ncnc(Nc4ccc(OCc5nccs5)c(Cl)c4)c3c2)=N1 | 89.4
* N#CC[C@H](C1CCCC1)n1cc(-c2ncnc3[nH]ccc23)cn1 | 93.2
* O=C(NC[C@H](O)CO)c1ccncc1Nc1ccc(I)cc1F | 77
* COCC(=O)NC/C=C/c1ccc2ncnc(Nc3ccc(Oc4ccc(C)nc4)c(C)c3)c2c1 | 91.8
* N#CCNC(=O)c1ccc(-c2ccnc(Nc3ccc(N4CCOCC4)cc3)n2)cc1 | 94.2

---

System: IGR37-GP cells (Dabrafenib-resistant)
Test: Kinase inhibitor library screening, PrestoBlue cell viability, 1 or 10 μM, 72 h
Settings: IGR37 GP, 10μΜ, 72 h
Procedure: After 72 h of treatment, cell viability was assessed using the PrestoBlue Cell Viability Reagent (ThermoFisher Scientific). Measurements were performed with the CLARIOstar Monochromator microplate reader (BMG Labtech). Kinase inhibitor library screening. […] Drugs were added at 2 different concentrations, 1 and 10 μM, for 72 h and cell viability was assessed using the PrestoBlue Cell Viability assay. […] Each cell line was analyzed at least in duplicate. […]
Exam item: assign label 1 to entries whose cell viability, IGR37 GP, 10μΜ is below 50% and label 0 to entries at or above 50%. Note that a value of exactly 50% receives label 0.

- C[C@@H]1CCN(C(=O)CC#N)C[C@@H]1N(C)c1ncnc2[nH]ccc12: label 0
- C#Cc1cccc(Nc2ncnc3cc(OCCOC)c(OCCO)cc23)c1 [Desmethyl Erlotinib (CP-473420)]: label 0
- CN(c1ncccc1CNc1nc(Nc2ccc3c(c2)CC(=O)N3)ncc1C(F)(F)F)S(C)(=O)=O: label 1
- C=CC(=O)Nc1cccc(Sc2nc(Nc3ccc(N4CCN(C)CC4)cc3)ncc2Cl)c1: label 1
- CN1CCN(c2ccc3nc(-c4c(N)c5c(F)cccc5[nH]c4=O)[nH]c3c2)CC1: label 1
- Cc1cnc(Nc2ccc(OCCN3CCCC3)cc2)nc1Nc1cccc(S(=O)(=O)NC(C)(C)C)c1 [TG101348 (SAR302503)]: label 1
- Cc1c(NC(=O)OC[C@@H]2COCCN2)cn2ncnc(Nc3ccc4c(cnn4Cc4cccc(F)c4)c3)c12: label 0
- COc1cc2c(N3CCN(C(=O)Nc4ccc(OC(C)C)cc4)CC3)ncnc2cc1OCCCN1CCCCC1: label 0

---

cell viability, A375 Parental, 1μΜ by entry:
test system: A375 cells (parental); experiment: Kinase inhibitor library screening, PrestoBlue cell viability, 1 or 10 μM, 72 h; settings: A375 Parental, 1μΜ, 72 h; in %
OBSERVABLE: cell viability, A375 Parental, 1μΜ

- CC(C)(C)c1cc(/C=C(\C#N)C(N)=S)cc(C(C)(C)C)c1O: 103.1
- C#Cc1cccc(Nc2ncnc3cc(OCCOC)c(OCCO)cc23)c1: 104.3
- COc1cc2ncnc(Nc3ccc(O)c(Br)c3)c2cc1OC: 98.9
- COc1cc2c(N3CCN(C(=O)Nc4ccc(OC(C)C)cc4)CC3)ncnc2cc1OCCCN1CCCCC1: 106.1

---

system: 501Mel-XP cells (Vemurafenib-resistant); assay: Kinase inhibitor library screening, PrestoBlue cell viability, 1 or 10 μM, 72 h; details: 501Mel XP; 10μΜ; 72 h; in %
Exam item: assign Condition met to entries whose Cell viability in kinase inhibitor library screening, 501Mel XP, 10μΜ is below 4 and Condition not met to entries at or above 4. Note that a value of exactly 4 receives Condition not met.

- O=c1c(O)c(-c2ccc(O)c(O)c2)oc2cc(O)cc(O)c12 [Quercetin (Sophoretin)]: Condition not met
- Cc1ccc(F)c(NC(=O)Nc2ccc(-c3cccc4[nH]nc(N)c34)cc2)c1 [Linifanib (ABT-869)]: Condition met
- CC1(COc2ccc3c(c2)ncn3-c2ccc3cccc(N4CCC(N)CC4)c3n2)COC1 [Crenolanib (CP-868596)]: Condition met
- COc1ncc(-c2ccc3nccc(-c4ccnnc4)c3c2)cc1NS(=O)(=O)c1ccc(F)cc1F [GSK2126458]: Condition met
- CN(C)C1CCN(C(=O)c2ccc(NC(=O)Nc3ccc(-c4nc(N5CCOCC5)nc(N5CCOCC5)n4)cc3)cc2)CC1 [PF-05212384 (PKI-587)]: Condition met
- O=C1NC(=O)/C(=C\c2ccc3nccnc3c2)S1 [AS-605240]: Condition not met
- Nc1nc(N)c2nc(-c3cccc(O)c3)cnc2n1 [TG 100713]: Condition not met
- COc1ccc(Cl)c(Nc2nc3ccccc3nc2NS(=O)(=O)c2cccc(NC(=O)C(C)(C)N)c2)c1 [XL147]: Condition not met
